Just for reference, patent EP4737453A1 is where these values come from.

Biological target: SOS2 and KRAS G12C interaction (Homo sapiens, UniProt Q07890)
Sequence (Q07890 whole entry, species assumed, stated change not applied): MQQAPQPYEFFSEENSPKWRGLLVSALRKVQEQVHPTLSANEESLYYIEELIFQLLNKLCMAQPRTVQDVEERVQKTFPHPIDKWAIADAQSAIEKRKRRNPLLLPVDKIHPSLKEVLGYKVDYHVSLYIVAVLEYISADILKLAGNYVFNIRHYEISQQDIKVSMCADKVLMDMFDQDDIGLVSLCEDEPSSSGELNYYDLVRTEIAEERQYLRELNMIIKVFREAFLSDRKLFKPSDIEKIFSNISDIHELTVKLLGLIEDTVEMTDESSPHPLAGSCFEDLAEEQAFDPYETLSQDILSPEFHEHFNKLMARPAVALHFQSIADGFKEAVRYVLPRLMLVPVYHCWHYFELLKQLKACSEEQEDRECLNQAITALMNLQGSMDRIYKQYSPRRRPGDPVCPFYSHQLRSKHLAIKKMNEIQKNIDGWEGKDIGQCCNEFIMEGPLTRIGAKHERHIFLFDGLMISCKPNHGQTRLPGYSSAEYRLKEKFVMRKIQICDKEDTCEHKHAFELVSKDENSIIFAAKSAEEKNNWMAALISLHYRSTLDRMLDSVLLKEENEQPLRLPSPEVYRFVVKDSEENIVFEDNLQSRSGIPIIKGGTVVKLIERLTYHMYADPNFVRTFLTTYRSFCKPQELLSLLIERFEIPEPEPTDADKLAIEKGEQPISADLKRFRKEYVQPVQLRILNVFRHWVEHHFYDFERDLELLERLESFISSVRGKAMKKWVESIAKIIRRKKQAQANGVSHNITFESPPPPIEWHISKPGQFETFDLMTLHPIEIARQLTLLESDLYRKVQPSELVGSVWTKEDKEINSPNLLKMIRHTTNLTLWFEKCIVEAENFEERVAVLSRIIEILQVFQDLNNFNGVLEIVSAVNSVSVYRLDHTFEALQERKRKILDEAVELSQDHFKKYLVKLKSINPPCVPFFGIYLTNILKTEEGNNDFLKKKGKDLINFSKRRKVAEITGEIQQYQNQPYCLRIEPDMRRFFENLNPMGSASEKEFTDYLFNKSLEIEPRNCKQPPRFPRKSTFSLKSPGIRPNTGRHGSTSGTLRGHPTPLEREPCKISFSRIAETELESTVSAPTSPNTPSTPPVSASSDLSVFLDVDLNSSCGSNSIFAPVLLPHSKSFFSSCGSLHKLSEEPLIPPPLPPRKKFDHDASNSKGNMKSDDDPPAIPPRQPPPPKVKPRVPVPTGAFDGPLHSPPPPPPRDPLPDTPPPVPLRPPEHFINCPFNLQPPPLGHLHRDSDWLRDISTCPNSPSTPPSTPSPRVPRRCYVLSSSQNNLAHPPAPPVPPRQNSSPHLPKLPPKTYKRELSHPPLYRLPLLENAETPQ
Assay type: biochemical
assayMetric: IC50
Please make sure the unit comes right after the number.

Query :: Which measured IC50 value corresponds to CNCc1ccccc1-c1c[se]c([C@@H](C)Nc2nc(C)nc3cc(OC)c(OC)cc23)c1 [Example 1] ?
Result :: 24.6 µM

---

Below, each entry is listed alongside its reported pIC50.
Biological target: SOS1 and KRAS G12C interaction (Homo sapiens, UniProt Q07889)
Sequence (Q07889 564-1049 limits assumed, species assumed, stated change not applied): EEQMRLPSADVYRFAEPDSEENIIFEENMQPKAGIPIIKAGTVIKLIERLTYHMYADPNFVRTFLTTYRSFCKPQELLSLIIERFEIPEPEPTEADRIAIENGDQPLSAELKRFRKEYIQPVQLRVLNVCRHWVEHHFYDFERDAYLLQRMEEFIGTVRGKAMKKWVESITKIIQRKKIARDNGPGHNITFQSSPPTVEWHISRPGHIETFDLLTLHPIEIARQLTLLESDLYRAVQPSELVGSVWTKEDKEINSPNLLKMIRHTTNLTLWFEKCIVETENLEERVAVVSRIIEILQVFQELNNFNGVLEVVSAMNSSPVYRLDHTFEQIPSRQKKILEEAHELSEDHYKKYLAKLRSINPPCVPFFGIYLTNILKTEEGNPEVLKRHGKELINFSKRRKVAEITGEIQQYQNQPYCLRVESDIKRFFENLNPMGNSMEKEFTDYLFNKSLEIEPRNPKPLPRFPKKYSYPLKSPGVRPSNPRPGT
Assay: Biochemical analysis of the inhibitory activity of SOS1 and KRAS G12C interaction (time-resolved fluorescence, 665/615 nm)
Details: SOS1, KRAS G12C; 60 minutes at room temperature; read-out: Enzyme activity IC50
Please treat pIC50 as minus the base-10 logarithm of the molar concentration.

COc1cc2nc(C)nc(N[C@H](C)c3cc(-c4ccccc4CN4CCCC4)c[se]3)c2cc1O[C@H]1CCOC1 7.65

Query :: Which measured pIC50 value corresponds to COc1cc2nc(C)nc(N[C@H](C)c3cc(-c4ccccc4CN(C)C)c[se]3)c2cc1O[C@H]1CCOC1 ?
Result :: 7.79

---

Molecular target: SOS1 and KRAS G12C interaction (Homo sapiens)
Test: Biochemical analysis of the inhibitory activity of SOS1 and KRAS G12C interaction (time-resolved fluorescence, 665/615 nm)
Procedure: Biochemical analysis of the inhibitory activity of SOS1 and KRAS G12C interaction In this experimental example, the efficacy of the compound according to the present invention in inhibiting the binding of KRAS and SOS1 was biochemically measured. A KRAS G12C working solution was prepared by adding biotin-linked KRAS G12C protein and europium-linked streptavidin to assay buffer solution (20 mM HEPES, 50 mM NaCl, 200 µg/mL […] (BSA), 0.01% Pluronic F127). […]
Below, each entry is listed alongside its reported pIC50.
Please treat pIC50 as minus the base-10 logarithm of the molar concentration.

Example entries and their recorded answers appear below.
molecule	testTarget	pIC50
CNCc1ccccc1-c1c[se]c([C@@H](C)Nc2nc(C)nc3cc(OC)c(O[C@H]4CCOC4)cc23)c1 [Example 2]	SOS1 and KRAS G12C interaction (Homo sapiens)	7.78
CNCc1ccccc1-c1c[se]c([C@@H](C)Nc2nc(C)nc3cc(OC)c(OC)cc23)c1 [Example 1]	SOS1 and KRAS G12C interaction (Homo sapiens)	7.73
COc1cc2nc(C)nc(N[C@H](C)c3cc(-c4ccccc4CN(C)C)c[se]3)c2cc1OC [Example 5]	SOS1 and KRAS G12C interaction (Homo sapiens)	7.56
COc1cc2nc(C)nc(N[C@H](C)c3cc(-c4ccccc4CN4CCCC4)c[se]3)c2cc1OC [Example 6]	SOS1 and KRAS G12C interaction (Homo sapiens)	7.12
[2H]C([2H])([2H])NCc1ccccc1-c1c[se]c([C@@H](C)Nc2nc(C)nc3cc(OC)c(OC)cc23)c1 [Example 7]	SOS1 and KRAS G12C interaction (Homo sapiens)	7.72
CNCc1ccccc1-c1c[se]c([C@@H](C)Nc2nc(Cl)nc3c2CN(C(=O)C2(OC)CCOCC2)C3)c1 [Example 3]	SOS1 and KRAS G12C interaction (Homo sapiens)	7.46

Moving on to another molecule below.
Query :: Which measured pIC50 value corresponds to CNCc1ccccc1-c1c[se]c([C@@H](C)Nc2nnc(C)c3cnc(N4CCOCC4)cc23)c1 [Example 4] ?
Result :: 7.87
